// reported viability, T/C per item
Test system: 282377-053-R-J1-PDC complex spheroid viability;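 note: spheroids exposed to agents for seven days before readout; luminescence viability as percent of DMSO vehicle control wells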
Assay: Anticancer human tumor 282377-053-R-J1-PDC patient-derived colon adenocarcinoma cell line growth inhibition [RAS]
Conditions: second compound 0.0949 µM; first compound 0.00316 µM; stronger effect = lower value
Return type: number; implicit unit %.

>  <molecule>
O=C(c1ccc(F)c(F)c1Nc1ccc(I)cc1F)N1CC(O)([C@@H]2CCCCN2)C1 + CCn1c(-c2cccnc2C(C)OC)c2c3cc(ccc31)N1CCOC(CC(NC(=O)C(C(C)C)N(C)C(=O)C3(F)CCN(C(=O)C#CC(C)(C)N(C)C)CC3)C(=O)N3CCCC(N3)C(=O)OCC(C)(C)C2)C1

>  <property>
viability, T/C

>  <val>
67.2

$$$$
>  <molecule>
Nc1ccn(C2OC(CO)C(O)C2(F)F)c(=O)n1 (centres undefined) + CCn1c(-c2cccnc2C(C)OC)c2c3cc(ccc31)N1CCOC(CC(NC(=O)C(C(C)C)N(C)C(=O)C3(F)CCN(C(=O)C#CC(C)(C)N(C)C)CC3)C(=O)N3CCCC(N3)C(=O)OCC(C)(C)C2)C1

>  <property>
viability, T/C

>  <val>
87

$$$$
>  <molecule>
C=CC(=O)N1CCN(c2nc(OCC3CCCN3C)nc3c(F)c(-c4nc(N)cc(C)c4C(F)(F)F)c(Cl)cc23)C(C)C1 (centres undefined) + CCn1c(-c2cccnc2C(C)OC)c2c3cc(ccc31)N1CCOC(CC(NC(=O)C(C(C)C)N(C)C(=O)C3(F)CCN(C(=O)C#CC(C)(C)N(C)C)CC3)C(=O)N3CCCC(N3)C(=O)OCC(C)(C)C2)C1

>  <property>
viability, T/C

>  <val>
90.5

$$$$

Next up:
Ask | Item CCN1CCN(Cc2ccc(Nc3ncc(F)c(-c4cc(F)c5nc(C)n(C(C)C)c5c4)n3)nc2)CC1 + CCn1c(-c2cccnc2C(C)OC)c2c3cc(ccc31)N1CCOC(CC(NC(=O)C(C(C)C)N(C)C(=O)C3(F)CCN(C(=O)C#CC(C)(C)N(C)C)CC3)C(=O)N3CCCC(N3)C(=O)OCC(C)(C)C2)C1 has what recorded viability, T/C?
Reply | 102
